Test system: CU-ACC1
Test: area under concentration-response curve (viability) (AUC (a.u.)); higher = less active
Settings: 48 h
Use 500 as the dividing line for area under concentration-response curve, with the line itself on the TRUE side and lower values as FALSE.

Check if area under concentration-response curve >= 500 (inclusive). Item: Cc1cccc(-c2n[nH]cc2-c2ccc3ncccc3n2)n1 FALSE

# bool: area under concentration-response curve of CCC\C1=C\C(=O)NC(=S)N1 >= 500 FALSE

State whether the measured area under concentration-response curve reaches 500, counting equality as reaching it, for OC(=O)CNC(=O)\C1=C(/O)C2=CC=CC=C2N(CC3=CC=CC=C3)C1=O FALSE

Could you please find out whether C[C@]12CC[C@H]3[C@@H](C\C=C/4C[C@@H](O)CC[C@]34C)[C@@H]1CCC2=O has area under concentration-response curve that meets 500 or exceeds it? TRUE

Exam item: decide whether the reported area under concentration-response curve for C=CCn1c(=O)c2cnc(Nc3ccc(N4CCN(C)CC4)cc3)nc2n1-c1cccc(C(C)(C)O)n1 is at least 500. FALSE

Quick check, area under concentration-response curve >= 500? CC1=CC2=C(O1)C(=C3OC(=O)\C=C(C)/C3=C2)C FALSE

Does area under concentration-response curve meet or surpass 500 for Cl.NC(CO)C(=O)NNCc1ccc(O)c(O)c1O (configuration not stated) ? TRUE

area under concentration-response curve >= 500 for CC[S+](=O)([O-])c1ccc2oc(-c3ccc4ccccc4c3)nc2c1 ? TRUE

Is reported area under concentration-response curve greater than or equal to 500 here: CCOc1cc(C(=O)Nc2ccc(Cl)c(-c3nc4ccccc4[nH]3)c2)cc(OCC)c1OCC FALSE

Check this compound for area under concentration-response curve at or above 500: CC(C)CC(=O)N[C@H](C(=O)N[C@H](C(=O)N[C@@H](CC(C)C)[C@@H](O)CC(=O)N[C@@H](C)C(=O)N[C@@H](CC(C)C)[C@@H](O)CC(=O)O)C(C)C)C(C)C TRUE

Is area under concentration-response curve at least 500? Consider Cc1c(F)ccc(C(=O)Nc2cc([N+](=O)[O-])ccc2N2CCN(C)CC2)c1Cl FALSE

Item Cc1ccc(C(C)(O)c2nc3ccccc3s2)c(C)c1 (configuration not stated) with area under concentration-response curve of 500 or above? FALSE

Decide: is the reported value of area under concentration-response curve for Cn1cc(-c2ccc(F)c(C(F)(F)F)c2)nc1C1CCN(c2ncnc3[nH]ncc23)CC1 equal to or greater than 500? FALSE

Determine whether measured area under concentration-response curve meets or exceeds 500 for OC[C@H]1O[C@H]([C@H](O)[C@@H]1O)N2/C=C\C=N/C2=O TRUE

###

Please go through the items and note down their area under concentration-response curve.
System: CU-ACC1
Test: area under concentration-response curve (viability) (AUC (a.u.)); higher = less active
Conditions: 48 h
Would you mind answering with just the numeric figure?

Form field area under concentration-response curve, entry CCNC(=O)CCC/C=C\C[C@@H]1[C@@H](/C=C/C(O)CCc2ccccc2)[C@@H](O)C[C@@H]1O (some centres not stated) : 508

Noted for COc1ccc(C(=O)N2CCN(C(=O)/C=C/c3ccc(Br)cc3)CC2)cc1 : its area under concentration-response curve reads 499

Reported area under concentration-response curve of CO/C1=C/C(C)=C\[C@@H](C)[C@@H](O)[C@@H](C)C/C(C)=C\C=C/[C@H](OC)[C@@H]([C@@H](C)[C@@H](O)[C@H](C)[C@@]2(O)C[C@@H](O)[C@H](C)[C@@H](C(C)C)O2)OC1=O : 388

Cc1ccc([S+](=O)([O-])Cc2nc(-c3ccc(C(=O)NCc4cccnc4)cc3)oc2C)cc1 has a reported area under concentration-response curve of 290

Field area under concentration-response curve (entry CC1(CN2CCC(n3c(=O)[nH]c4ccccc43)CC2)OCc2ccccc2-n2cccc21 (configuration not stated) ) reads 494

Notebook: COc1cc2ncnc(Oc3cccc(NC(=O)Nc4cc(C(C)(C)C(F)(F)F)on4)c3)c2cc1OC , area under concentration-response curve read as 446

Note to self: area under concentration-response curve recorded for CC1=NN(c2ccc(C(=O)O)cc2)C(=O)/C1=C/c1ccc(-c2cc(C)c(C)cc2[N+](=O)[O-])o1 was 556

###

Please provide measured area under concentration-response curve for the entries that follow.
Tested on: CU-ACC1
Assay: area under concentration-response curve (viability) (AUC (a.u.)); higher = less active
Conditions: 48 h
Please reply with the value in numeric form only.

// field: area under concentration-response curve; key: CCOC(=O)c1ccc(C#Cc2ccc3c(c2)C(C)(C)CCS3)nc1 ; value = 505

Reported area under concentration-response curve of NC(=O)c1ncn([C@@H]2O[C@H](CO)[C@@H](O)[C@H]2O)n1 : 511

So, CC1Cc2ccccc2N1NC(=O)c1ccc(Cl)c([S+](N)(=O)[O-])c1 (centres undefined) ? Its area under concentration-response curve was 488

get_value(item= COC1=CC=C(C=C1)C(=O)C2CCN(CC2)CC(=O)N(CC3CC3)C\C4=N\C5=C(\COCC5)C(=O)N4 , readout=area under concentration-response curve) returns 495

###

Test system: NCI-H295R
Test: area under concentration-response curve (viability) (AUC (a.u.)); higher = less active
Conditions: 48 h
Everything with area under concentration-response curve lower than 500 is f; everything else, including exactly 500, is t.

Does the reported area under concentration-response curve for CN1C(=O)c2sccc2N(C)c2nc(Nc3ccc([S+](N)(=O)[O-])cc3)ncc21 fall at or above the 500 mark? f

Does the reported area under concentration-response curve for CC(C)=CCC[C@](C)(O[C@@H]1O[C@H](CO[C@@H]2O[C@H](CO)[C@@H](O)[C@H](O)[C@H]2O)[C@@H](O)[C@H](O)[C@H]1O)[C@H]1CC[C@]2(C)[C@@H]1[C@H](O)C[C@@H]1[C@@]3(C)CC[C@H](O[C@@H]4O[C@H](CO)[C@@H](O)[C@H](O)[C@H]4O[C@@H]4O[C@H](CO)[C@@H](O)[C@H](O)[C@H]4O)C(C)(C)[C@@H]3CC[C@]12C fall at or above the 500 mark? t

Assess whether reported area under concentration-response curve for CCCCc1oc2ccccc2c1C(=O)c1cc(I)c(OCCN(CC)CC)c(I)c1 sits at 500 or higher. f

State whether the measured area under concentration-response curve reaches 500, counting equality as reaching it, for NC(=O)[C@@H](CCC(F)(F)F)N(Cc1ccc(-c2ncon2)cc1F)[S+](=O)([O-])c1ccc(Cl)cc1 f

Entry COC(=O)Nc1ccc(-c2nc(N3CCOCC3)c3cnn(C4CCN(Cc5cccnc5)CC4)c3n2)cc1 : is its area under concentration-response curve no less than 500? f

###

Please go through the items and note down their AC50 viability.
Test system: CU-ACC1
Assay: AC50 viability; higher = less potent
Conditions: 48 h
I only need the number, in µM, no unit after it.

Item: CN(C)C(=O)[C@H](O)[C@H](Cc1ccccc1)NC(=O)c1cc2cc(Cl)ccc2[nH]1 | AC50 viability: 0.0118

// recorded AC50 viability for CCC(CC)C(c1ccc(Nc2nc3ccccc3s2)cc1)n1cncn1 (stereo not drawn) : 29.5

// AC50 viability value for CC[C@H](CC#N)OC(=O)N[C@@H](C)c1cccc(NC(=O)Nc2ccc(-c3cnco3)c(OC)c2)c1 : 5.9

Summary for this molecule, COc1cc(-c2nn(C3CCC(N4CCN(C(C)=O)CC4)CC3)c3ncnc(N)c23)ccc1NC(=O)c1cc2ccccc2n1C (stereo not drawn) : AC50 viability is 8.33

The reported AC50 viability of the molecule C=C1CCC2[C@](C)(CO)C(O)CC[C@]2(C)C1C/C=C1/C(=O)OCC1O (stereo partly drawn) was 18.6

The measured AC50 viability associated with CC(=O)Nc1cc(Oc2ccc3c(nc(Nc4ccc(F)cc4F)n3C)c2C)ccn1 reads 18.6

According to the records, this molecule Cc1ccc([S+](=O)([O-])Cc2nc(-c3ccc(C(=O)NCc4cccnc4)cc3)oc2C)cc1 displays AC50 viability of 0.0742

Summary for this molecule, COc1ccc(-c2cc(C(O)C3CCCCN3)c3ccccc3n2)cc1 (stereo not drawn) : AC50 viability is 10.5

Just so you know, measured AC50 viability for CN1CCN(c2ncc(-c3cc(Cl)cc(Cl)c3Cl)c(N)n2)CC1 came out at 14.8

AC50 viability for C[C@@H]1CN(CC(=O)N2CC(C)(C)c3ncc(Cc4ccc(F)cc4)cc32)[C@@H](CN2CCOC[C@H]2C)CN1 is 18.6

# molecule CC(C)C1=N[N](C\2=C1C(=O)N\C(=N2)CC3=CC=C(OCCO)C=C3)C4=C(Cl)C=CC=C4Cl ; its AC50 viability = 0.0332

Recorded result, CCN1CCN(C(=O)Cc2ccc(Nc3ncc(F)c(Nc4ccc(C(=O)Nc5ccccc5Cl)cc4)n3)cc2)CC1 , AC50 viability: 9.34

Memo: CCN1CCN(Cc2ccc(-c3cc4c(N[C@H](C)c5ccccc5)ncnc4[nH]3)cc2)CC1 , reported AC50 viability: 23.5

These entries and their values trace back to the supplement of paper PMC10949913.
